system: OVCAR-5 ovarian; test: NCI-60 one-dose screen, 48 h; conditions: 10 µM unless noted
This is part of a sample that, as a whole, favours compounds with a hit. Of some 83,000 tested, about 20% had one in any assay. The source made the active and inactive calls. Rule for the calls: active = growth percent below 10; inactive = the rest.
Outcome (select one): True for active, False for inactive

Compound: CN1CCN(c2nc(-c3csc(-c4cccs4)n3)cc3ccccc23)CC1
Target Entity: OVCAR-5 ovarian
Label Value: False

# ---- query compound ----
Would you mind telling me which call this test gave N#C/C(=C\c1ccc(-c2ccc(Br)cc2)o1)c1nc(-c2ccco2)cs1 ?
False

* * *

tested on: HCC-2998 colon; experiment: NCI-60 one-dose screen, 48 h (100 = growth as untreated, 0 = no growth, -100 = all killed); details: 10 µM unless noted
Compounds without any hit were thinned out: in the full panel of roughly 83,000, 20% have a hit.
Recorded growth for the following compounds
Numbers only here, please. The scale is %.

Check out these entries, answers already filled in.
Compound: Nc1c2c(nc3ccc(Cl)cc13)CC(c1ccccc1)CC2=O (centres undefined)
growth [%]: 67.3
--
Compound: Cn1cc(-c2csc(-c3cn(CCCN4CCCCC4)c4ccccc34)n2)c2cccnc21
growth [%]: 99
--
Compound: CCC(CC)C(=O)OC(C)COc1ccc(C(C)(C)C)cc1 (centres undefined)
growth [%]: 101

Could you now consider this next compound?
Could you please provide reported growth for O=S(=O)(NCCNc1cc(-c2cn(-c3ccccc3)nc2-c2cccc(O)c2)ccn1)c1ccc(F)cc1 ? Thanks!
-34.9

* * *

tested on: RXF 393 renal; assay: NCI-60 one-dose screen, 48 h; settings: 10 µM unless noted
About 83,000 compounds went through this panel and 20% of them were active in at least one assay; those are over-represented in the sample as a whole. Activity calls are given as the source filed them. Rule for the calls: active = growth percent below 10; inactive = the rest.
Can you answer with just one of these options? YES = active, NO = inactive

Input Smiles: Cc1nn(-c2ccc(Br)cc2)c2nc3[nH]c(=O)[nH]c(=O)c3nc12
Label Value: NO

Input Smiles: CCCCCCCN(CCCCCCC)C(=N)c1ccnc2ccccc12
Label Value: YES

Input Smiles: COC(=O)[C@]12CC[C@@H](C)[C@H](C)[C@@H]1C1=CC[C@@H]3[C@@]4(C)C[C@@H](O)[C@H](O)[C@@](C)(CO)C4=CC[C@@]3(C)[C@]1(C)CC2
Label Value: YES

Input Smiles: CC1(C)CC[C@]2(C(=O)NCCNCCN)CC[C@]3(C)C(=CC[C@@H]4[C@@]5(C)CCC(=O)C(C)(C)[C@@H]5CC[C@]43C)[C@@H]2C1
Label Value: NO

Any idea what this test logged for CCN1CCN(c2nc(C)cc(N(CCCNc3ccnc4cc(Cl)ccc34)Cc3ccco3)n2)CC1 ?
NO

Status in this test for COC(=O)[C@]12CC[C@@H](C)[C@H](C)[C@@H]1C1=CC[C@@H]3[C@@]4(C)C[C@@H](OC(C)=O)[C@H](O)[C@@](C)(CO)[C@@H]4[C@H](O)C[C@@]3(C)[C@]1(C)CC2 ?
YES

Tell me the recorded outcome of this test for O=S(=O)(NCCNc1cc(-c2cn(-c3ccccc3)nc2-c2cccc(O)c2)ccn1)c1ccc(Cl)cc1 .
NO

* * *

system: HCT-15 colon; assay: NCI-60 one-dose screen, 48 h; settings: 10 µM unless noted
This is part of a sample that, as a whole, favours compounds with a hit. Of some 83,000 tested, about 20% had one in any assay. Active and inactive are the calls of the source. How the source made its calls: active means growth percent below 10; inactive means the rest.
Could you please pick one outcome from this set? yes (active), no (inactive)

# count of solved cases: 6
Compound: N#Cc1c(-c2ccco2)nc2c(c(-c3ccccc3)nn2-c2ccccc2)c1-c1ccc(O)cc1
Target Entity: HCT-15 colon
Label Value: no
//
Compound: COc1cc2nc(Cl)nc(Nc3cccc(C(=O)/C=C/c4ccc(Br)cc4)c3)c2cc1OC
Target Entity: HCT-15 colon
Label Value: no
//
Compound: Cc1cc(N2CCCC2)nc(N(CCNc2ccnc3cc(Cl)ccc23)Cc2ccco2)n1
Target Entity: HCT-15 colon
Label Value: no
//
Compound: CC(C)/C=C/CC[C@](C)(O)[C@H]1CC[C@]2(C)[C@@H]1CC[C@@H]1[C@@]3(C)C/C(=C/c4cccc(C(F)(F)F)c4)C(=O)C(C)(C)[C@@H]3CC[C@]12C
Target Entity: HCT-15 colon
Label Value: no
//
Compound: COc1cc(-c2cc3ncccc3c3[nH]c(=O)c4cccnc4c23)cc(OC)c1OC
Target Entity: HCT-15 colon
Label Value: no
//
Compound: Brc1ccc2c(c1)c(-c1nc(-c3c[nH]c4ncccc34)cs1)cn2CCCN1CCCCC1
Target Entity: HCT-15 colon
Label Value: yes

Assay result, entry Brc1ccc2[nH]cc(-c3nc(-c4c[nH]c5ncccc45)cs3)c2c1 — outcome?
yes

Look up the recorded call for N#CC1c2ccccc2-c2ccccc2N1C(=O)c1ccccc1 (configuration not stated) in this test.
no

Please indicate how the test categorized O=C(NO)c1ccc(Cn2c(=O)n(-c3ccccc3)c(=O)c3ccccc32)cc1 .
no

Status in this test for COc1ccc2c3c(c4ccccc4cc13)C(=O)N(CCN(C)CCN)C2=O ?
yes

* * *

Items are presented alongside their recorded growth.
system: RPMI-8226 leukemia; experiment: NCI-60 one-dose screen, 48 h (100 = growth as untreated, 0 = no growth, -100 = all killed); details: 10 µM unless noted
This is part of a sample that, as a whole, favours compounds with a hit. Of some 83,000 tested, about 20% had one in any assay.
Could you give me the number in %? Just the number is fine.

Solved cases below.
Molecule: Cc1ccc(Sc2sc(-c3ccccc3)nc2[P+](c2ccccc2)(c2ccccc2)c2ccccc2)cc1
growth / %: -39.2
//
Molecule: COc1c(N)c2c(c([N+](=O)[O-])c1OC)C(=O)OC2
growth / %: 99.9
//
Molecule: CCN1CCN(C(=O)[C@]23CCC(C)(C)C[C@H]2C2=CC[C@@H]4[C@@]5(C)CC/C(=N/O)C(C)(C)[C@@H]5CC[C@@]4(C)[C@]2(C)CC3)CC1
growth / %: 16.6
//
Molecule: O=C1/C(=C\c2ccc(Br)o2)SC(=S)N1CCc1ccc(O)cc1
growth / %: 26.6
//
Molecule: CCN1CCN(C(=O)[C@@]2(C)CC[C@]3(C)CC[C@]4(C)C(=CC(=O)[C@@H]5[C@@]6(C)CC[C@H](OC7C[C@@H](O)[C@@H](O)C(C)O7)C(C)(C)[C@@H]6CC[C@]54C)[C@@H]3C2)CC1 (stereo partly drawn)
growth / %: -25.7
//
Molecule: CN1CCN(c2ccc3nc(-c4[nH]ncc4Nc4ncnc5c4OCCCN5)[nH]c3c2)CC1
growth / %: -36.3
//
Molecule: Cc1cc(N2CCCC2)nc(N(CCNc2ccnc3cc(Cl)ccc23)Cc2ccco2)n1
growth / %: -42.3

Now for a further molecule.
State measured growth of the molecule COc1cc2nc(Cl)nc(Nc3cccc(C(=O)/C=C/c4ccc(Br)cc4)c3)c2cc1OC with RPMI-8226 leukemia.
-2.21

* * *

tested on: SK-MEL-5 melanoma; assay: NCI-60 one-dose screen, 48 h; settings: 10 µM unless noted
This is part of a sample that, as a whole, favours compounds with a hit. Of some 83,000 tested, about 20% had one in any assay. Activity calls are given as the source filed them. How the source made its calls: active means growth percent below 10; inactive means the rest.
# valid calls are active, inactive; nothing else

// below: answered compounds
Input Smiles: C[N+](C)(CCCCCC[N+](C)(C)C1c2ccccc2-c2ccccc21)C1c2ccccc2-c2ccccc21
Label Value: inactive

Input Smiles: O=C1C(Cl)=C(Nc2ccc(S(=O)(=O)c3ccc(NC4=C(Cl)C(=O)c5ccccc5C4=O)cc3)cc2)C(=O)c2ccccc21
Label Value: inactive

Hello, I am checking results. What call was entered for COc1cc2nc(Cl)nc(Nc3cccc(C(=O)/C=C/c4ccc(Br)cc4)c3)c2cc1OC ?
inactive

Can you look up the reported call for Cc1cc(N(CCCNc2ccnc3cc(Cl)ccc23)Cc2ccco2)nc(N2CCN(C)CC2)n1 for me?
active

* * *

The following molecules are shown together with reported growth values.
test system: MOLT-4 leukemia; assay: NCI-60 one-dose screen, 48 h (100 = growth as untreated, 0 = no growth, -100 = all killed); conditions: 10 µM unless noted
The panel holds about 83,000 compounds, 20% with a hit somewhere; the sample as a whole holds those more often.
Lab book: enter the figure in %, no units written.

Use these answered entries as a reference point.
Molecule: Cc1nc([P+](c2ccccc2)(c2ccccc2)c2ccccc2)c(Sc2sc(-c3ccccc3)nc2[P+](c2ccccc2)(c2ccccc2)c2ccccc2)o1
Target Entity: MOLT-4 leukemia
Numeric Result: 13

Molecule: NC1=NN=C2N(N)C(=O)c3cnn(-c4ccccc4)c3N2c2nc(-c3ccccc3)cc(-c3ccccc3)c21
Target Entity: MOLT-4 leukemia
Numeric Result: 91.6

Molecule: Cn1cc(-c2csc(-c3cn(C(=O)OC(C)(C)C)c4ccc(Br)cc34)n2)c2cccnc21
Target Entity: MOLT-4 leukemia
Numeric Result: 97.4

Molecule: COc1ccc(-c2nc(SCC(=O)Nc3ccc(C(C)=O)cc3)[nH]c(=O)c2C#N)cc1
Target Entity: MOLT-4 leukemia
Numeric Result: 103

Molecule: COc1cccc(-c2nn(-c3ccccc3)cc2-c2ccnc(NCCNS(=O)(=O)c3cccc(F)c3)c2)c1
Target Entity: MOLT-4 leukemia
Numeric Result: 4.55

Specify growth for C=C(C)[C@@H]1CC[C@]2(C(=O)OC)CC[C@]3(C)[C@H](CC[C@@H]4[C@@](C)(CC/C(N)=N/O)[C@H](C(=C)C)CC[C@]43C)[C@@H]12 and stop.
92.4

Provide growth value for the following molecule: Clc1ccc2c(NCCNc3nc(-c4ccccc4)cc(-c4ccccc4)n3)ccnc2c1
-32.2

Give growth for the following molecule: CC(C)=CCC[C@](C)(O)[C@H]1CC[C@]2(C)[C@@H]1CC[C@@H]1[C@@]3(C)C/C(=C/c4cccc([N+](=O)[O-])c4)C(=O)C(C)(C)[C@@H]3CC[C@]12C
67.5

Retrieve growth measured for CC(=O)n1c(/C(C#N)=C/c2ccc(N(C)C)cc2)cc2ccccc21 and print it.
33.1

Answer with reported growth of COc1ccc2c(c1)c(-c1nc(-c3c[nH]c4ncccc34)cs1)cn2CCNC(=O)OC(C)(C)C
55.7

Supply reported growth belonging to this molecule: CC1(C)c2ccccc2C(=O)C1(Br)Cc1ccccc1 (stereo unspecified)
16.4

Entry O=C1C(Cl)=C(Nc2ccc(S(=O)(=O)c3ccc(NC4=C(Cl)C(=O)c5ccccc5C4=O)cc3)cc2)C(=O)c2ccccc21 needs its growth filled in; supply it.
19
